Subject of test: T1, 4H3926-bA
T1 chain: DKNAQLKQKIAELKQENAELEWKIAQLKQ
Measurement protocol: two-hybrid library CCNG1;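 also: natural log of median RNA to DNA barcode read ratio; higher means stronger binding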
Measurement kind: interaction score

{"columns": ["Binder", "interaction score"],
 "data": [
  ["DKNAQLKQEIAELEQENAELKWKIAQLEQ [4H3613-bA]", 2.15]
]}

P: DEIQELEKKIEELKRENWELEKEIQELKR [4H338-bH]
Q: DKNAQLEQKNAELEQKIAELKWEIAQLEQ [4H3497-bA]
R: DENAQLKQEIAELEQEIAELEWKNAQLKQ [4H1544-bA]
S: DKNAQLEQEIAELKQKIAELEWKNAQLEQ [4H3175-bA]
Write the entries in order, lowest recorded interaction score first. Put the labels in the order asked and list them.
Q, S, R, P

1: DKIAQLKQEIAELEQENAELKWEIAQLKQ [4H2586-bA]
2: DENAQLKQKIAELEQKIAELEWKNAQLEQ [4H1831-bA]
Which entry has a larger number for interaction score, 1 or 2 ? State your choice using its label.
1
(1: 1.9, 2: -0.904)

P: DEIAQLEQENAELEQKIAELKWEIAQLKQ [4H170-bA]
Q: DKNAQLEQKNAELEQEIAELEWKIAQLKQ [4H3462-bA]
Which entry has a larger number for interaction score, P or Q ? State your choice using its label.
P

P: DKIAQLKQKNAELKQEIAELEWEIAQLKQ [4H3010-bA]
Q: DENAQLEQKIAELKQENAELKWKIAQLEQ [4H1373-bA]
R: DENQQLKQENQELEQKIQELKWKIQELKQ [4H1710-bN]
Write the entries in order, lowest recorded interaction score first. Put the labels in the order asked and list them.
R, P, Q

P: DKNAQLEQENAELKQEIAELKWKIAQLEQ [4H3277-bA]
Q: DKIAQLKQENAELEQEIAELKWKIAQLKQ [4H2702-bA]
Which record shows the lower interaction score: the first, P , or the second, Q ? State your choice using its label.
P

meta.source: paper PMC10397247
